Would you mind telling me the reported %Inh of each entry?
# Test system: ULK1;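 note: KINOMEscan kinase panel screen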
# Measurement parameters: concentration: 1 μM, replicates: in singlicate; n = 1
Answers are plain numbers, in %.

Look over these answered cases.
INSERT INTO measurements (compound, observation_type, assay_value) VALUES
  ('CCS(=O)c1ccc(-c2coc3ccc(-c4nnc(C)o4)cc23)cc1 (stereo not drawn)', '%Inh', 0),
  ('Cc1c(Cn2c(C)nn3c(=O)cc(N4CCO[C@H](C)C4)nc23)cccc1C(F)(F)F', '%Inh', 14);

Hi! Can you tell me %Inh for each of these compounds?
1. Cn1c(=O)c(F)c(Nc2ccc(I)cc2F)c2c(=O)n(OC[C@H](O)CO)cnc21
2. CCS(=O)(=O)c1ccc(OC)c(Nc2ncc(-c3ccc(F)cc3)o2)c1.Cl
3. Cc1nnc(-c2ccc(C)c(-c3ccc(C(=O)O)cc3)c2)o1
4. CC(C)(C)c1ccc(C(=O)Nc2cn3cc(-c4ccccc4)ccc3n2)cc1
5. O=c1cc(N2CCOCC2)nc2n(Cc3ccc(F)c(Cl)c3)ccn12
6. Cc1cccc(-c2nc(Nc3ccc4c(cnn4C)c3)c3ccccc3n2)n1
7. OCCCNc1nccc(-c2c(-c3cccc(C(F)(F)F)c3)nn3cc(C(F)(F)F)ccc23)n1

Reply text:
1. 0
2. 0
3. 8
4. 0
5. 16
6. 8
7. 0
